# target-entity: T1, 4H3462-bH
# T1 chain: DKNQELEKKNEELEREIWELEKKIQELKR
# method-description: two-hybrid library CCNG1;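 further: natural log of median RNA to DNA barcode read ratio; higher means stronger binding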
Kindly apply the following: t if interaction score is less than 0.03, f in every other case.

1) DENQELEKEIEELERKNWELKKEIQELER [4H1081-bH] | t
2) DKNQELEKENEELKRKIWELEKEIQELKR [4H3298-bH] | f
3) DENQELKKENEELERKIWELKKKIQELKR [4H1710-bH] | f
4) DKNQELEKEIEELKRENWELKKEIQELKR [4H3162-bH] | t
5) DENQELKKKIEELKRKIWELKKENQELER [4H1899-bH] | t
6) DENQELEKKIEELKRENWELKKKIQELER [4H1373-bH] | t
7) DENQELKKKNEELKREIWELEKEIQELER [4H1985-bH] | t
8) DENQELEKKIEELKREIWELEKENQELKR [4H1348-bH] | f
